src = patent US9573961B2

The following compounds are shown together with reported pIC50 values.
# TARGET_OF_ASSAY: hROMK (hKir1.1) (Homo sapiens (Human), UniProt P48048)
# Sequence (P48048 whole entry): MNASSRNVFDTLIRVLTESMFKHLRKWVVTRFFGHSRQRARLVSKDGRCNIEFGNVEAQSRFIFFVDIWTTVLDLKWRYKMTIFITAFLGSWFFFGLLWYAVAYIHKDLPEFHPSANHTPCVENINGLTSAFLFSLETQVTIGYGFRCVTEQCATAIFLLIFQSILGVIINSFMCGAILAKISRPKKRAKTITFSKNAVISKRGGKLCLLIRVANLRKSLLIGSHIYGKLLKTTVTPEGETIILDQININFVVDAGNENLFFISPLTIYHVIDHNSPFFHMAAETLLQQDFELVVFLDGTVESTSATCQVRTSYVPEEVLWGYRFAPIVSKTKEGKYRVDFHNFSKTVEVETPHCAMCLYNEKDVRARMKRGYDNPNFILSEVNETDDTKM
# PROTOCOL_TEXT: Thallium Flux Assay (ROMK channel functional thallium flux, FLIPR-Tetra)
# Assay type: cell-based
# CONDITION_INFO: HEK293 cells stably expressing hROMK (hKir1.1); read-out: Thallium Flux IC50
pIC50: −log10 of the molar value.

{"columns": ["COMPOUND", "pIC50"],
 "data": [
  ["Cc1c([C@H]2CN3CCN(C(=O)C4Cc5ccc(-n6cnnn6)cc5C4)C[C@H]3CO2)ccc(F)c1C#N (stereo partly shown)", 6.43],
  ["O=C1OCCc2cc([C@@H]3CN4CCN(C(=O)C5CCCc6cc(-n7cnnn7)ccc65)C[C@H]4CO3)ccc21 (single isomer, unassigned)", 6.37],
  ["Cc1c(C#N)cccc1[C@@H]1CN2CCN(C(=O)Cc3ccc(-n4cnnn4)cc3)C[C@H]2CO1", 7.05],
  ["Cc1c([C@H]2CN3CCN(C(=O)C4CCc5cc(-n6cnnn6)ccc54)C[C@H]3CO2)ccc(F)c1C#N (single isomer, unassigned)", 6.77],
  ["O=C1OCc2c1ccc([C@H]1CN3CCN(C(=O)Cc4ccc(-n5cnnn5)cc4)C[C@H]3CO1)c2Cl", 7.00],
  ["O=C(C1CCc2cc(-n3cnnn3)ccc21)N1CCN2C[C@@H](c3ccc4nonc4c3)OC[C@@H]2C1 (stereo partly shown)", 6.68],
  ["Cc1c([C@H]2CN3CCN(C(=O)Cc4ccc(-n5cnnn5)cc4)C[C@@H]3CO2)ccc2c1COC2=O", 6.96]
]}

----------
The following molecules are shown together with reported pIC50 values.
# TARGET_OF_ASSAY: hROMK (hKir1.1) (Homo sapiens (Human), UniProt P48048)
# PROTOCOL_TEXT: Thallium Flux Assay (ROMK channel functional thallium flux, FLIPR-Tetra)
# Format: cell-based
# CONDITION_INFO: read-out: Thallium Flux IC50
pIC50: −log10 of the molar value.

{"columns": ["SMILES_RECORD", "pIC50"],
 "data": [
  ["Cc1c([C@@H]2CN3CCN(C(=O)Cc4ccc5c(c4)COC5=O)C[C@H]3CO2)ccc(F)c1C#N", 7.22],
  ["O=C1OCCc2cc([C@@H]3CN4CCN(C(=O)Cc5ccc(-n6cnnn6)cc5)C[C@H]4CO3)ccc21", 7.30],
  ["COc1c([C@@H]2CN3CCN(C(=O)Cc4ccc(-n5cnnn5)cc4)C[C@H]3CO2)ccc(F)c1C#N", 7.00],
  ["Cc1c([C@H]2CN3CCN(C(=O)Cc4ccc5c(c4)COC5=O)C[C@H]3CO2)ccc(F)c1C#N", 7.15],
  ["Cc1c([C@@H]2CN3CCN(C(=O)Cc4cc(F)c(-n5cnnn5)cc4F)C[C@@H]3CO2)ccc(F)c1C#N", 7.00],
  ["Cc1c([C@@H]2CN3CCN(C(=O)Cc4ccc(-n5cnnn5)cc4Cl)C[C@@H]3CO2)ccc(F)c1C#N", 7.00]
]}

----------
The following compounds are shown together with reported pIC50 values.
# TARGET_OF_ASSAY: hROMK (hKir1.1) (Homo sapiens (Human), UniProt P48048)
# PROTOCOL_TEXT: Thallium Flux Assay (ROMK channel functional thallium flux, FLIPR-Tetra)
# Type: cell-based
# CONDITION_INFO: HEK293 cells stably expressing hROMK (hKir1.1); read-out: Thallium Flux IC50
pIC50: −log10 of the molar value.

{"columns": ["COMPOUND", "pIC50"],
 "data": [
  ["Cc1c([C@H]2CN3CCN(C(=O)C4CCCc5cc(-n6cnnn6)ccc54)C[C@H]3CO2)csc1C#N (single isomer, unassigned) [Example 97]", 6.21],
  ["Cc1c([C@@H]2CN3CCN(C(=O)C4CCc5cc(-n6cnnn6)ccc54)C[C@H]3CO2)csc1C#N (single isomer, unassigned) [Example 82]", 6.48],
  ["Cc1c(CC(=O)N2CCN3C[C@H](c4ccc(F)c(C#N)c4C)OC[C@H]3C2)cccc1-n1cnnn1 [Example 61]", 6.47],
  ["COc1cc(CC(=O)N2CCN3C[C@@H](c4ccc5c(c4)COC5=O)OC[C@@H]3C2)c(F)cc1C#N [Example 10]", 6.89],
  ["Cc1c([C@@H]2CN3CCN(C(=O)C4CCc5cc(-n6cnnn6)ccc54)C[C@H]3CO2)ccc(F)c1C#N (mixture of isomers) [Example 2A]", 6.77],
  ["COc1c([C@H]2CN3CCN(C(=O)Cc4ccc(-n5cnnn5)cc4)C[C@H]3CO2)ccc(F)c1C#N [Example 33]", 6.96],
  ["Cc1c([C@@H]2CN3CCN(C(=O)Cc4c(F)cc(-n5cnnn5)cc4F)C[C@@H]3CO2)ccc2c1COC2=O [Example 79]", 6.59],
  ["Cc1c([C@H]2CN3CCN(C(=O)Cc4ccc(-n5cnnn5)cc4)C[C@H]3CN2)ccc2c1COC2=O [Example 100]", 6.37],
  ["O=C(C1CCc2cc(-n3cnnn3)ccc21)N1CCN2C[C@@H](c3cccc(-n4cnnn4)c3)OC[C@@H]2C1 (single isomer, unassigned) [Example 80]", 6.89],
  ["Cc1c([C@@H]2CN3CCN(C(=O)Cc4ccc(-n5cnnn5)cc4)C[C@H]3CO2)ccc2c1COC2=O [Example 1A]", 7.52],
  ["COc1ccc([C@@H]2CN3CCN(C(=O)C4CCc5cc(-n6cnnn6)ccc54)C[C@H]3CO2)c(C)c1C#N (some centres unmarked) [Example 63]", 6.74],
  ["Cc1c([C@@H]2CN3CCN(C(=O)Cc4c(F)cc(-n5cnnn5)cc4F)C[C@H]3CO2)ccc(F)c1C#N [Example 52]", 6.77],
  ["COc1cc([C@H]2CN3CCN(C(=O)Cc4ccc(-n5cnnn5)cc4)C[C@@H]3CO2)ccc1C#N [Example 18]", 6.60],
  ["Cc1c([C@@H]2CN3CCN(C(=O)Cc4c(F)cc(-n5cnnn5)cc4F)C[C@@H]3CO2)ccc(F)c1C#N [Example 53]", 6.74],
  ["C[C@@H]1Cc2cc([C@@H]3CN4CCN(C(=O)Cc5ccc(-n6cnnn6)cc5)C[C@H]4CN3)ccc2C(=O)O1 [Example 104]", 6.54],
  ["Cc1c([C@H]2CN3CCN(C(=O)Cc4cc(-n5cnnn5)ccc4F)C[C@@H]3CO2)ccc(F)c1C#N [Example 58]", 6.74],
  ["Cc1c([C@@H]2CN3CCN(C(=O)Cc4ccc(-n5cnnn5)cc4)C[C@H]3CO2)csc1C#N [Example 39]", 7.22],
  ["Cc1c([C@@H]2CN3CCN(C(=O)C4CCCc5cc(-n6cnnn6)ccc54)C[C@H]3CO2)ccc2c1COC2=O (single isomer, unassigned) [Example 89]", 6.31],
  ["Cc1c([C@H]2CN3CCN(C(=O)Cc4ccc(-n5cnnn5)cc4)C[C@H]3CO2)ccc(Cl)c1C#N [Example 35]", 6.12],
  ["C[C@@H]1Cc2cc([C@@H]3CN4CCN(C(=O)Cc5c(F)cc(-n6cnnn6)cc5F)C[C@H]4CN3)ccc2C(=O)O1 [Example 105]", 6.44],
  ["Cc1c([C@@H]2CN3CCN(C(=O)Cc4ccc(-n5cnnn5)cc4)C[C@H]3CO2)ccc(Cl)c1C#N [Example 34]", 6.72],
  ["Cc1c([C@@H]2CN3CCN(C(=O)Cc4ccc(-n5cnnn5)cc4)C[C@H]3CO2)ccc2nonc12 [Example 76]", 6.66],
  ["Cc1c([C@@H]2CN3CCN(C(=O)C4CCc5cc(-n6cnnn6)ccc54)C[C@H]3CO2)csc1C#N (single isomer, unassigned) [Example 83]", 6.85],
  ["Cc1c([C@@H]2CN3CCN(C(=O)Cc4cccc(-n5cnnn5)c4)C[C@H]3CO2)ccc(F)c1C#N [Example 47]", 6.52],
  ["Cc1cc(F)c(C#N)cc1[C@@H]1CN2CCN(C(=O)Cc3ccc(-n4cnnn4)cc3)C[C@H]2CO1 [Example 38]", 6.96],
  ["COc1cc(CC(=O)N2CCN3C[C@@H](c4ccc5c(c4)CCOC5=O)OC[C@@H]3C2)c(F)cc1C#N [Example 30]", 7.00]
]}
